Quick reference: aptazyme ON/OFF ratio of the listed items.
B1: Pistol ribozyme (parent)
chain: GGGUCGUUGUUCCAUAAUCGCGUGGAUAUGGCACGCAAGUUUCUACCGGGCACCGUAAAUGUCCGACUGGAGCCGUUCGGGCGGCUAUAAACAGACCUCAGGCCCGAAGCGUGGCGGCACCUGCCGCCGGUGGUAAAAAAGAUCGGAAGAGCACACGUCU

- Variants of: B1
- test method notes: aptazyme ON/OFF ratio, guanine; higher = stronger switching; co-transcriptional cleavage with and without guanine
Would you mind answering with just the numeric figure?

{"columns": ["mutation notation", "assay value"],
 "data": [
  ["U7C U8C U10G U11G C12A C13U", 1.13]
]}

Give a short answer stating reported aptazyme ON/OFF ratio for U7C G9C U10G U11G C12G .
1.12

Using the record for U7A G9A U10G U11C C12U C13A , state its measured aptazyme ON/OFF ratio.
1.2

Return the recorded aptazyme ON/OFF ratio value; entry: U8G G9A U10G U11A C12U C13U
1.47

Tell us which aptazyme ON/OFF ratio value is on record for U7G U8G G9A U10C U11C C12U C13U
1.13

Answer with reported aptazyme ON/OFF ratio of U7C U8A G9A U10G U11G C12G C13G
1.23

Report measured aptazyme ON/OFF ratio; entry is U7C U8A G9A U10G U11G C12A
1.11

Look up and report measured aptazyme ON/OFF ratio for this entry: U7C U8C U10A U11G C12G C13A
1.25

Please give measured aptazyme ON/OFF ratio of the following entry: U8A U10C U11C C13G
1.04

Complete the entry with aptazyme ON/OFF ratio for G9U U11A C12G C13G
1.2
